Tested on: B16
Test method notes: Cytotoxicity against alpha-MSH stimulated mouse B16 cells after 72 hrs by MTT assay
Type: cell-based
Test parameters: B16, 72 h
pIC50: −log10 of the molar value.
Quantity name: pIC50

- C=C(C)[C@]12C[C@@H](C)[C@@]34OC(c5ccccc5)(O[C@@H]1[C@@H]3[C@H](O)[C@](O)(COC(=O)c1ccccc1)[C@@H](O)[C@@]1(O)[C@H]4C[C@H](C)[C@@H]1O)O2: < 4.52

## Input Entry C=C(C)[C@@]12OCO[C@@H]1[C@@H]1[C@@H]3O[C@]3(CO)[C@@H](O)[C@]3(O)C(=O)C(C)=C[C@H]3[C@@]1(Oc1ccccc1)[C@H](C)[C@H]2OC(=O)c1ccccc1 [GENKWADAPHNIN] has what pIC50?
## Output < 4.52

## Input Entry C=C(C)[C@@]12OC3(C)O[C@@H]1[C@@H]1C=C(CO)C[C@]4(O)C(=O)C(C)=C[C@H]4[C@@]1(O3)[C@H](C)[C@H]2OC(C)=O has what pIC50?
## Output < 4.52

## Input Entry C=C(C)[C@@]12OC3(C)O[C@@H]1[C@@H]1C=C(CO)C[C@]4(O)C(=O)C(C)=C[C@H]4[C@@]1(O3)[C@H](C)[C@H]2OC(=O)c1ccccc1 has what pIC50?
## Output 5.18

## Input Entry C=C(C)[C@]12C[C@@H](C)[C@@]34OC(c5ccccc5)(O[C@@H]1[C@@H]3[C@H](O)[C@](O)(COC(=O)/C=C/C=C/CCCCC)[C@@H](O)[C@@]1(O)[C@H]4C[C@H](C)[C@@H]1O)O2 has what pIC50?
## Output < 4.52

## Input Entry C=C(C)[C@@]12O[C@@]3(/C=C/C=C/CCCCC)O[C@@H]1[C@@H]1[C@@H]4O[C@]4(CO)[C@@H](O)[C@]4(O)C(=O)C(C)=C[C@H]4[C@@]1(O3)[C@H](C)[C@H]2OC(C)=O [YUANHUADINE] has what pIC50?
## Output 4.66

## Input Entry C=C(C)[C@]12C[C@@H](C)[C@@]34OC(c5ccccc5)(O[C@@H]1[C@@H]3[C@H](O)[C@](O)(CO)[C@@H](O)[C@@]1(O)[C@H]4C[C@H](C)[C@@H]1O)O2 has what pIC50?
## Output < 4.52

## Input Entry C=C(C)[C@@]12OC3(/C=C/C=C/CCCCC)O[C@@H]1[C@@H]1[C@@H]4O[C@]4(CO)[C@@H](O)[C@]4(O)C(=O)C(C)=C[C@H]4[C@@]1(O3)[C@H](C)[C@H]2OC(=O)CC has what pIC50?
## Output 4.55

## Input Entry C=C(C)[C@@]12O[C@@]3(/C=C/C=C/CCCCC)O[C@@H]1[C@@H]1[C@@H]4O[C@]4(CO)[C@@H](O)[C@]4(O)C(=O)C(C)=C[C@H]4[C@@]1(O3)[C@H](C)[C@H]2OC(=O)c1ccccc1 [GNIDILATIDIN] has what pIC50?
## Output < 4.52
